As shown below, each of these molecules has a reported tissue uptake at 1 h value.
# RUN_DESCRIPTION: Ex vivo biodistribution in PC-3 tumor-bearing mice
# TEST_SETTINGS: mouse, fat, Uptake in fat, 1 h post-injection
Numbered stars: 1 amine (or outer) side, 2 acyl side, 3 side chain; on linkers, the order of the positions; unused ones are H or OH. Square brackets hold non-standard residues; d marks the D form. Peptide text beside a SMILES is read from it. * marks the point of attachment. DOTA = O=C(O)CN1CCN(CC(=O)O)CCN(CC(=O)*)CCN(CC(=O)O)CC1; NMeH = CN[C@@H](Cc1c[nH]cn1)C(=O)O; X1 = O=C(CN1CCC(N[*:1])CC1)[*:2]; Tle = CC(C)(C)[C@H](N)C(=O)O; Thz = O=C(O)[C@@H]1CSCN1
Provide the reading as a plain figure in %ID/g.

Solved entries (count: 2):
molecule="CC(C)C[C@H](NC(=O)[C@H](Cc1cnc[nH]1)N(C)C(=O)CNC(=O)[C@@H](NC(=O)[C@H](C)NC(=O)[C@H](Cc1c[nH]c2ccccc12)NC(=O)[C@H](Cc1c[nH]cn1)NC(=O)[C@@H](Cc1ccccc1)NC(=O)CN1CCC(NC(=O)CN2CCN(CC(=O)O)CCN(CC(=O)O)CCN(CC(=O)O)CC2)CC1)C(C)(C)C)C(=O)N1CSC[C@H]1C(N)=O [[^177Lu]Lu-LW01142, metal not drawn] ({DOTA}-[X1][dF]HWA[Tle]G[NMeH]L[Thz]-NH2)" display_unit=%ID/g observed=0.11
molecule="CC(C)C[C@@H](CN1CSC[C@H]1C(N)=O)NC(=O)[C@H](Cc1cnc[nH]1)NC(=O)CN(C)C(=O)[C@@H](NC(=O)[C@H](C)NC(=O)[C@H](Cc1c[nH]c2ccccc12)NC(=O)[C@H](CCC(N)=O)NC(=O)[C@@H](Cc1ccccc1)NC(=O)CN1CCC(NC(=O)CN2CCN(CC(=O)O)CCN(CC(=O)O)CCN(CC(=O)O)CC2)CC1)C(C)C [[^177Lu]Lu-TacsBOMB5, metal not drawn]" display_unit=%ID/g observed=0.15

Kindly review the next molecule as well.
Which tissue uptake at 1 h is reported for this molecule? CC(C)C[C@H](NC(=O)[C@H](Cc1cnc[nH]1)N(C)C(=O)CNC(=O)[C@@H](NC(=O)[C@H](C)NC(=O)[C@H](Cc1c[nH]c2ccccc12)NC(=O)[C@H](CCC(N)=O)NC(=O)[C@@H](Cc1ccccc1)NC(=O)CN1CCC(NC(=O)CN2CCN(CC(=O)O)CCN(CC(=O)O)CCN(CC(=O)O)CC2)CC1)C(C)(C)C)C(=O)N1CSC[C@H]1C(N)=O [[^177Lu]Lu-LW01110, metal not drawn]
0.07

====

# RUN_DESCRIPTION: Ex vivo biodistribution in PC-3 tumor-bearing mice
# TEST_SETTINGS: mouse, blood, Uptake in blood, 72 h post-injection
# Procedure: SPECT/CT imaging experiments were performed using an MILabs (Houten, The Netherlands) U-SPECT-II/CT scanner with a custom-made ultra-high-sensitivity big mouse collimator (2 mm pinhole size) following previously reported procedures. […] For ex vivo biodistribution studies, the mice were injected with ~2–6 MBq of the radioligand. […] Organs/tissues of interested were collected, weighed, and measured using an automatic gamma counter.
EXPERIMENTAL_ENDPOINT: tissue uptake at 72 h (%ID/g)
Provide the reading as a plain figure in %ID/g.

Which tissue uptake at 72 h is reported for this molecule? CC(C)C[C@@H](CN1CSC[C@H]1C(N)=O)NC(=O)[C@H](Cc1cnc[nH]1)NC(=O)CN(C)C(=O)[C@@H](NC(=O)[C@H](C)NC(=O)[C@H](Cc1c[nH]c2ccccc12)NC(=O)[C@H](CCC(N)=O)NC(=O)[C@@H](Cc1ccccc1)NC(=O)CN1CCC(NC(=O)CN2CCN(CC(=O)O)CCN(CC(=O)O)CCN(CC(=O)O)CC2)CC1)C(C)C [[^177Lu]Lu-TacsBOMB5, metal not drawn]
0.07
